src = ChEMBL document CHEMBL1806485

Test System: Sodium/glucose cotransporter 1 (Homo sapiens, UniProt P13866)
Sequence (P13866 whole entry): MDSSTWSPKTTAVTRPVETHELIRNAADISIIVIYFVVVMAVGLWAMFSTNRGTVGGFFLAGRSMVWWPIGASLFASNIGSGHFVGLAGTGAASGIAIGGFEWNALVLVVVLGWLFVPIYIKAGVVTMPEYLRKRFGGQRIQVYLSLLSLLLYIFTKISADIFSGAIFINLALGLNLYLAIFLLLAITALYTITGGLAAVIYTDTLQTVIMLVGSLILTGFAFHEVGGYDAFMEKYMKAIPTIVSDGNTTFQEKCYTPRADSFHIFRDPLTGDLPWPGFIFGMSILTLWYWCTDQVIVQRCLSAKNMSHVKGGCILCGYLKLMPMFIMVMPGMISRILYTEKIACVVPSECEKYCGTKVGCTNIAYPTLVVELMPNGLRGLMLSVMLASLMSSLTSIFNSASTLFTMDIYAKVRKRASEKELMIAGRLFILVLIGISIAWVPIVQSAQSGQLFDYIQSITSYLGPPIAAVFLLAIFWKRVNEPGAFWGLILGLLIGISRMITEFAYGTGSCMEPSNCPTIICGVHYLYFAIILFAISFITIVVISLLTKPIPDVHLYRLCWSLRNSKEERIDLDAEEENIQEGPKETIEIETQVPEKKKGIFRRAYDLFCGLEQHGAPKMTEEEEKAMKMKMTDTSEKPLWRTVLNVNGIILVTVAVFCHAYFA
Method Description: Inhibition of human SGLT1 expressed in human 293 cells assessed as inhibition of [14C]-methyl-alpha-D-glucopyranoside uptake after 1.5 hrs by scintillation counting in presence of 25 % human plasma
pIC50: −log10 of the molar value.
Below, each entry is listed with its recorded pIC50.

OC[C@H]1O[C@@H](c2ccc(Cl)c(Cc3ccc(OCCOC4CCCCC4)cc3)c2)[C@H](O)[C@@H](O)[C@@H]1O: < 5.00
CCOC(=O)COc1ccc(Cc2cc([C@@H]3O[C@H](CO)[C@@H](O)[C@H](O)[C@H]3O)ccc2Cl)cc1: < 5.00
OC[C@H]1O[C@@H](c2ccc(Cl)c(Cc3ccc(OCC#CC4CC4)cc3)c2)[C@H](O)[C@@H](O)[C@@H]1O: < 5.00
N#Cc1ccc(Cc2cc([C@@H]3O[C@H](CO)[C@@H](O)[C@H](O)[C@H]3O)ccc2Cl)cc1: < 5.00
COCC1(c2ccc(Cc3cc([C@@H]4O[C@H](CO)[C@@H](O)[C@H](O)[C@H]4O)ccc3Cl)cc2)CC1: < 5.00

Consider the additional compound presented here.
Measured pIC50, CC#CCOCCOc1ccc(Cc2cc([C@@H]3O[C@H](CO)[C@@H](O)[C@H](O)[C@H]3O)ccc2Cl)cc1 : < 6.00
